molecular target: hGPR35 (Homo sapiens, UniProt Q9HC97); construct: expressed in transfected cells; experiment: DMR antagonism (desensitization) assay in CHO-GPR35 cells, zaprinast challenge; type: cell-based; settings: read-out: IC50 (hGPR35, DMR desensitization)
Sequence (Q9HC97 whole entry): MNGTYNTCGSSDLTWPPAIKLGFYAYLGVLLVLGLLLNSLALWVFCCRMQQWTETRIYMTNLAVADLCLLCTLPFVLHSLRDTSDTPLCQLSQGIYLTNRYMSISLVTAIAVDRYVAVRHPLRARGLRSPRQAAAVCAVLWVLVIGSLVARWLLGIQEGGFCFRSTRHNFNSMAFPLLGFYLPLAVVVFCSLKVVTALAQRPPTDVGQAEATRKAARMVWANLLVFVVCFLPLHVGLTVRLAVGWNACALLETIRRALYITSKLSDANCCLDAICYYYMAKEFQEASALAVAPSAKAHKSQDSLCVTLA
ASSAY_ENDPOINT: pIC50
Hey, just a heads up that pIC50 is the negative log base 10 of the concentration in molar.

// query Returns the measured pIC50 for the input compound. Input: CC(C)NC(=O)c1cccc(-c2noc(CCc3c[nH]c4ccccc34)n2)c1 [F545-1970]
// result 4.41
